# assay.target: von Willebrand factor full length (Homo sapiens, UniProt P04275 SEQ:764-2813)
# protocol.notes: filter; 20 nM protein
# stated.conditions: tags: Calbiochem 681300
measurement.kind: binding signal

// binding signal lookup, binder = AMX236.A11 (ssDNA) DNA: CTACCTACGATCTGACTAGCTTGGTAGCGACTCTGTGGAGCTGCGGTCTGGCCGACGTCAGCTTACTCTCATGTAGTTCC , result: 2.02 ratio to no protein

// binding signal lookup, binder = AMX237.G2 (ssDNA) DNA: CTACCTACGATCTGACTAGCTTTCAGTCTTTCATATTTATAGGGTTTGGCATTGGGTCTGGCTTACTCTCATGTAGTTCC , result: 1.02 ratio to no protein

// binding signal lookup, binder = AMX237.G7 (ssDNA) DNA: CTACCTACGATCTGACTAGCTTGGTAGCGACTTTGTGGAGCTGCGGTTTGGTCGACGTCAGCTTACTCTCATGTAGTTCC , result: 2.68 ratio to no protein

// binding signal lookup, binder = AMX237.C11 (ssDNA) DNA: CTACCTACGATCTGACTAGCGTGCAGTGCCTATTCTAGGCCGTGCGGTGCCTCCGTCATGCTTACTCTCATGTAGTTCC , result: 2.04 ratio to no protein

// binding signal lookup, binder = AMX237.D5 (ssDNA) DNA: CTACCTACGATCTGACTAGCTTGGTAGCGACACTGTGGAGCTGCGGTTTGGTTGACGTCAGCTTACTCTCATGTAGTTCC , result: 1.41 ratio to no protein

// binding signal lookup, binder = AMX238.A11 (ssDNA) DNA: CTACCTACGATCTGACTAGCGGAATGAGAGTGTTGGTGGATTGCTCAGGTCTGCTGGCTGCTTACTCTCATGTAGTTCC , result: 0.85 ratio to no protein

// binding signal lookup, binder = AMX237.F5 (ssDNA) DNA: CTACCTACGATCTGACTAGCTTTTAGTCTTCCACATTTATAGGGTTTGGCATTGGGTCTGGCTTACTCTCATGTAGTTCC , result: 0.99 ratio to no protein

// binding signal lookup, binder = AMX237.B11 (ssDNA) DNA: CTACCTACGATCTGACTAGCTCCAGTGTTTTATCTAATAACCGTGCGGTGCCTCCGTGAGCTTACTCTCATGTAGTTCC , result: 2.87 ratio to no protein

// binding signal lookup, binder = AMX236.B8 (ssDNA) DNA: CTACCTACGATCTGACTAGCTTGGTAGCGACTCTGTGGAGCTGCGGTCTGGTCGACGTCAGCTTACTCTCATGTAGTTCC , result: 1.66 ratio to no protein

// binding signal lookup, binder = AMX238.F5 (ssDNA) DNA: CTACCTACGATCTGACTAGCGGAATGAGAAGCTGGTGGATTGCTCAGGTCTGCTGGCTGCTTACTCTCATGTAGTTCC , result: 1.05 ratio to no protein
